- Read-out: Collagen I, COL1A1 (gene 1277)
- Experiment Notes: BSK_MyoF_CollagenI: BioMAP Diversity Plus: MyoF Assay for Collagen I Biomarker Activity (AID 2284238)
- Particulars: primary human lung fibroblasts
Calls of active or inactive are those of the source. Rule for the calls: active = hit-call score of the fitted dose curve at least 0.9, where 1 is the maximum; inactive = score below 0.9.
Outcome codes: y (active), n (inactive)

> print(dat)
                                    molecule  assigned.category
 1                   O=[N+]([O-])C=Cc1ccccc1                  y
 2                   O=c1[nH]c(Cl)c(Cl)cc1Cl                  n
 3                       CC(=O)/C=C/c1ccccc1                  n
 4                     Clc1ccc(-c2ccccc2)cc1                  n
 5  CC(C)(C)C(O)C(Oc1ccc(-c2ccccc2)cc1)n1cncn1 (stereo unspecified)                  y
 6                   C=CCN(CC=C)C(=O)C(Cl)Cl                  n
 7                           Oc1cc(Cl)ccc1Cl                  n
 8  CC(C)(c1cc(Cl)c(O)c(Cl)c1)c1cc(Cl)c(O)c(Cl)c1                  y
 9            O=C(O)CCCc1ccc(N(CCCl)CCCl)cc1                  n
10                          CC(C)(C)C(=O)CCl                  n
11                 O=S(=O)(c1ccccc1)c1ccccc1                  n

###

- Tested Target: Cytochrome P450 2C18 (Homo sapiens) (UniProt P33260)
- Sequence (P33260 whole entry, looked up): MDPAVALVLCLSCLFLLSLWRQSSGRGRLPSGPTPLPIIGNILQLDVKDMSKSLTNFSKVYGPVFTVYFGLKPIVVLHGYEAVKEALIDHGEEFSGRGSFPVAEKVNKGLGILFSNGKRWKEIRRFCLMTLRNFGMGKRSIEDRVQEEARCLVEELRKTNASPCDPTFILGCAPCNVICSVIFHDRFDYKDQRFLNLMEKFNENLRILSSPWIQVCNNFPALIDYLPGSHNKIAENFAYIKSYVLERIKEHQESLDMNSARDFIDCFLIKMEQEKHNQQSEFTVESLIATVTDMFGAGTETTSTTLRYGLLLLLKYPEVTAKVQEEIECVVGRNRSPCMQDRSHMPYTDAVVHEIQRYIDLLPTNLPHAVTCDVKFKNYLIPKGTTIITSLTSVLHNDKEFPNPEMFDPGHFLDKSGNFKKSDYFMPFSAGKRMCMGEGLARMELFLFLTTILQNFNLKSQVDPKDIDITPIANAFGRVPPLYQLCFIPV
- Experiment Notes: NVS_ADME_hCYP2C18: NovaScreen (NVS) CYP450-related Enzyme Activity (ADME) Assay for human CYP2C18 (AID 2283103)
- Experimental: NVS_ADME_hCYP2C18 is a biochemical, single-readout assay that uses extracted gene-proteins in a cell-free assay. Measurements were taken 0.5 hour after chemical dosing in a 96-well plate.NVS_ADME_hCYP2C18 is one of one assay component(s) measured or calculated from the NVS_ADME_hCYP2C18 assay. […] This assay endpoint, NVS_ADME_hCYP2C18, was analyzed in the positive analysis fitting direction relative to Acetonitrile as the negative control and baseline of activity. […]
Calls of active or inactive are those of the source. The calls were made as follows: active = hit-call score of the fitted dose curve at least 0.9, where 1 is the maximum; inactive = score below 0.9.
Outcome codes: yes = active, no = inactive

> print(dat)
                    structure.smiles.string                             tested.target  assigned.category
1  COC(=O)CSc1cc(N=c2sc(=O)n3n2CCCC3)c(F)cc1Cl  Cytochrome P450 2C18 (Homo sapiens) (UniProt P33260)                 no
2  CC(C)[C@@H](C(=O)O[C@@H](C#N)c1cccc(Oc2ccccc2)c1)c1ccc(Cl)cc1  Cytochrome P450 2C18 (Homo sapiens) (UniProt P33260)                 no
3      Oc1ccc(C(c2ccc(O)cc2)C(Cl)(Cl)Cl)cc1  Cytochrome P450 2C18 (Homo sapiens) (UniProt P33260)                yes
4  CC(C)(C)[C@@H](O)[C@@H](Cc1ccc(Cl)cc1)n1cncn1  Cytochrome P450 2C18 (Homo sapiens) (UniProt P33260)                yes
5  Cc1nn(C)c(Oc2ccccc2)c1C=NOCc1ccc(C(=O)OC(C)(C)C)cc1  Cytochrome P450 2C18 (Homo sapiens) (UniProt P33260)                 no
